Listed below: Dog PPB (FUplasma), fraction unbound in plasma (fraction unbound) values for each entry.
Target: dog plasma proteins
Assay: plasma protein binding, ultracentrifugation, LC-MS/MS
Starred links: 1 amine or outer side, 2 acyl side, 3 side chain; linkers in the order of their positions; H or OH if unused. Non-standard residues stand in square brackets, D forms with d. Groups on a side chain read outwards from the residue. No end group written: not given here. *: point of attachment. C18 diacid = O=C(O)CCCCCCCCCCCCCCCCC(=O)*; C17 diacid = O=C(O)CCCCCCCCCCCCCCCC(=O)*; γGlu = O=C(O)[C@H](CCC(=O)[*:2])N[*:1]; NMeY = CN[C@@H](Cc1ccc(O)cc1)C(=O)O; AEEA = NCCOCCOCC(=O)O; Aib = CC(C)(N)C(=O)O
quantityMeasured: Dog PPB (FUplasma), fraction unbound in plasma (fraction unbound)

[
  {
    "binder": "[NMeY][Aib]EGTFISDYSI[Aib]LDRK([AEEA-AEEA-γGlu-γGlu-C17 diacid])AQ[Aib]NFVNWLLAQRPSSGAPPPS-NH2 [Compound No. 15]",
    "limitSign": "=",
    "val": 0.0021
  },
  {
    "binder": "[NMeY][Aib]EGTFISDYSI[Aib]LDR[Aib]AQ[Aib]K([2OEGgEgE-C18 diacid])FVNWLLAQRG-OH [Compound No. 72]",
    "limitSign": "=",
    "val": 0.0062
  },
  {
    "binder": "[NMeY][Aib]EGTFISDYSIALDR[Aib]AQ[Aib]K([AEEA-AEEA-γGlu-γGlu-C18 diacid])FVNWLLAQRG-OH [Compound No. 37]",
    "limitSign": "=",
    "val": 0.0012
  },
  {
    "binder": "[NMeY][Aib]EGTFISDYSI[Aib]LDR[Aib]AQ[Aib]K([AEEA-AEEA-γGlu-γGlu-C17 diacid])FVNWLLAQRPSSGAPPPS-NH2 [Compound No. 13]",
    "limitSign": "<",
    "val": 0.002
  },
  {
    "binder": "[NMeY][Aib]EGTFISDYSIALDR[Aib]K([AEEA-AEEA-γGlu-γGlu-C17 diacid])Q[Aib]NFVNWLLAQSPSSGAPPPS-NH2 [Compound No. 11]",
    "limitSign": "<",
    "val": 0.0024
  }
]
